- tested target: recombinant human DPP8 (Homo sapiens)
- Construct: purchased PBS Bioscience
- Sequence (Q6V1X1 whole entry): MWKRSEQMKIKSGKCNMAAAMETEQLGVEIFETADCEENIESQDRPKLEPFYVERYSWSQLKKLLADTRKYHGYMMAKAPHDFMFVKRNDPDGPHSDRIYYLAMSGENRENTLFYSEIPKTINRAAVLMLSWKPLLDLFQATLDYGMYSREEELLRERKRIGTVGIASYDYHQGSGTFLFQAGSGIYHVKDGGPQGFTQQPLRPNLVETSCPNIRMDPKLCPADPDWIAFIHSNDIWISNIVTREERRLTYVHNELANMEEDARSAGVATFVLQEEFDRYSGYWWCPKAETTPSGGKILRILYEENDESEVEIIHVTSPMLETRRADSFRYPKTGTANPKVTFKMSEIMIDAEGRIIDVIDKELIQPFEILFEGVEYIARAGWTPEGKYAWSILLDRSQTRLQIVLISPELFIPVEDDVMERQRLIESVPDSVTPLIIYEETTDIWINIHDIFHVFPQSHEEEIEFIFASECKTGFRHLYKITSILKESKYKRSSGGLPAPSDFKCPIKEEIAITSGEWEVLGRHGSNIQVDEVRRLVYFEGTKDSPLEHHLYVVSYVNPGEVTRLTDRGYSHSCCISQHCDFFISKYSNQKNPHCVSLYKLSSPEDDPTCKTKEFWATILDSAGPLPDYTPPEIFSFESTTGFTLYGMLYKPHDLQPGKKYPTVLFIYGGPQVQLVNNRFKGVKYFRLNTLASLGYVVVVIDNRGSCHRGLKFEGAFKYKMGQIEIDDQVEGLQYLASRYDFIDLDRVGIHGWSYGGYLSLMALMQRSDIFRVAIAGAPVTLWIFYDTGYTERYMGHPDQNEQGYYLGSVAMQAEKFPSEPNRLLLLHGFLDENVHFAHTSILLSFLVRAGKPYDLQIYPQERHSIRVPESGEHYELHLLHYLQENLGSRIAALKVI
- assay: DPP8 inhibition, fluorogenic substrate Z-Ala-Pro-AMC
- Type: biochemical
- recorded conditions: 25° C., Z-Ala-Pro-AMC substrate
pIC50: −log10 of the molar value.
quantity: pIC50

Study these solved cases before continuing.
molecule | pIC50
N#C[C@@H]1CCCN1C(=O)CN1CC[C@H](NC(=O)c2coc3c(F)cc(F)cc23)C1 | 4.41
N#C[C@@H]1CC(F)(F)CN1C(=O)CN1CC[C@H](Oc2cccc3[nH]c(=O)ccc23)C1 | 5.18

(A) N#C[C@@H]1C[C@H](F)CN1C(=O)CN1CC[C@H](NC(=O)c2coc3cc(F)ccc23)C1
(B) N#C[C@@H]1CC(F)(F)CN1C(=O)CN1CC[C@H](Nc2cncc3ccccc23)C1
A or B : whose pIC50 is greater? When you have decided, please share the label of that item. B
(B: 5.24, A: 4.54)

---

- tested target: recombinant human DPP8 (Homo sapiens)
- Construct: purchased PBS Bioscience
- assay: DPP8 inhibition, fluorogenic substrate Z-Ala-Pro-AMC
- Format: biochemical
- recorded conditions: 25° C., Z-Ala-Pro-AMC substrate
quantity: IC50 (µM)

molecule | quantity | unit string | test result
COc1ccc2c(O[C@H]3CCN(CC(=O)N4CCC[C@H]4C#N)C3)ccnc2c1 [Example 100] | IC50 | µM | 73.8
N#C[C@@H]1CCCN1C(=O)CN1CCC(Oc2cccc3ncccc23)CC1 [Example 119] | IC50 | µM | 60.4
COc1cccc2cc(N(C)[C@H]3CCN(CC(=O)N4CCC[C@H]4C#N)C3)cnc12 [Example 154] | IC50 | µM | 22

(1) N#C[C@@H]1CC(F)(F)CN1C(=O)CN1CC[C@H](Nc2ccc(-c3ccccc3)cc2)C1 [Example 14]
(2) N#C[C@@H]1C[C@@H]2C[C@@H]2N1C(=O)CN1CCC(Nc2cccc3ncccc23)CC1 [Example 115]
(3) N#C[C@@H]1CCCN1C(=O)CN1CC[C@H](NC(=O)c2cc3ccccc3s2)C1 [Example 36]
(4) CN(c1cnc2ccc(F)cc2c1)[C@H]1CCN(CC(=O)N2CCC[C@H]2C#N)C1 [Example 151]
(5) N#C[C@@H]1CC(F)(F)CN1C(=O)CN1CCC(Nc2cccc3ncccc23)CC1 [Example 114]
Rank descending by IC50. Please list the labels in the order you were asked to rank them. 2, 3, 4, 5, 1
(2: 52.1 µM, 3: 21.8 µM, 4: 12.3 µM, 5: 1.53 µM, 1: 0.676 µM)

---

- tested target: recombinant human DPP9 (Homo sapiens, UniProt Q86TI2)
- Construct: purchased R&D Systems
- Sequence (Q86TI2 whole entry): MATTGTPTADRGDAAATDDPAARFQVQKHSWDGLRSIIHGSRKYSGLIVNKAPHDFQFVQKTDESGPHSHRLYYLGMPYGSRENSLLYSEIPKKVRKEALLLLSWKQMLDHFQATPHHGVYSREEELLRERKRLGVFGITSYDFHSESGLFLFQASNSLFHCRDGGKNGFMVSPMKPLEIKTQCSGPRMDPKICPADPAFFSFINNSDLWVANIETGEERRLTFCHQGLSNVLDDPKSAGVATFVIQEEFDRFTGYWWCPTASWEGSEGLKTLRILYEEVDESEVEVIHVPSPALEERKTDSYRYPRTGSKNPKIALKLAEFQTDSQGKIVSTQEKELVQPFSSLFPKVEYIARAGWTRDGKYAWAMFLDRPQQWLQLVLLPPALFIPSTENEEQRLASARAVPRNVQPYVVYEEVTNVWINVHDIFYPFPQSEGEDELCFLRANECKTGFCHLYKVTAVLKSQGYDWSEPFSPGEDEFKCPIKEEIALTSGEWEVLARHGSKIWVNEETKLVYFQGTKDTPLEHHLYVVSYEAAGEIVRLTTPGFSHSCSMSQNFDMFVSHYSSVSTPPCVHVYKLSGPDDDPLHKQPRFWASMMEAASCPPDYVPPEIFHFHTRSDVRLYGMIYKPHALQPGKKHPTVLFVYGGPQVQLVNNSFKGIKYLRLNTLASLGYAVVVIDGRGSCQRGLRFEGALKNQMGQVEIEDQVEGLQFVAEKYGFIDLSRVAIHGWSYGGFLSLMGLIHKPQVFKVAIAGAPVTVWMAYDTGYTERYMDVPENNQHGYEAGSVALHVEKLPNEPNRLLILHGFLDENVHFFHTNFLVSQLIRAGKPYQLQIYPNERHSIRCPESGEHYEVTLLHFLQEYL
- assay: DPP9 inhibition, fluorogenic substrate H-Gly-Pro-AMC
- Type: biochemical
- recorded conditions: recombinant human DPP9
- Protocol: The compounds according to the present technology were evaluated in terms of the inhibitory effect on the activity of dipeptidyl peptidases including FAP by using a substrate producing fluorescent substances upon enzymatic decomposition. […] Fluorescence intensity was measured using a microplate reader (Flexstation3, Molecular Devices) under the wavelength condition exciting at 380 nm and reading the emission at 460 nm. […]
quantity: IC50 (µM)

compound | quantity | test result
N#C[C@@H]1C[C@H](F)CN1C(=O)CN1CCC(Nc2ccc(C(=O)Nc3ccncc3)c3ncccc23)CC1 [Example 406] | IC50 | 0.218
N#C[C@@H]1CCCN1C(=O)CN1CCC(Nc2ccc(C(=O)Nc3ncccn3)c3ncccc23)CC1 [Example 402] | IC50 | 7.83
N#C[C@@H]1C[C@H](F)CN1C(=O)CN1CCC(Nc2ccc(C(=O)Nc3ncccn3)c3ncccc23)CC1 [Example 403] | IC50 | 0.558
CCOc1ccc(N[C@H]2CCN(CC(=O)N3C[C@@H](F)C[C@H]3C#N)C2)c2cccnc12 [Example 275] | IC50 | 1.59
Cc1ccc(N[C@@H]2CCN(CC(=O)N3C[C@@H](F)C[C@H]3C#N)C2)c2cccnc12 [Example 181] | IC50 | 4.62
N#C[C@@H]1CCCN1C(=O)CN1CC[C@H](Nc2ccnc3c(C(F)(F)F)cccc23)C1 [Example 270] | IC50 | 19.2

(a) N#C[C@@H]1C[C@H](F)CN1C(=O)CN1CCC(Nc2ccnc3ccc(Cl)cc23)CC1 [Example 338]
(b) COc1cnc2cccc(N[C@H]3CCN(CC(=O)N4C[C@@H](F)C[C@H]4C#N)C3)c2c1 [Example 254]
Lab log: flag the item ( a or b ) with the smaller IC50 figure. When you have decided, please share the label of that item. a

(P) N#C[C@@H]1CCCN1C(=O)CN1CC[C@H](Nc2ccc3ncccc3c2)C1 [Example 230]
(Q) N#C[C@@H]1C[C@H](F)CN1C(=O)CN1CCC(Nc2cccc3ccncc23)CC1 [Example 342]
Lab log: flag the item ( P or Q ) with the smaller IC50 figure. When you have decided, please share the label of that item. Q
(Q: 5.33 µM, P: 17.6 µM)

(1) N#C[C@@H]1CCCN1C(=O)CN1CC[C@H](Nc2cccc3ncc(Cl)cc23)C1 [Example 235]
(2) N#Cc1ccc2c(N[C@H]3CCN(CC(=O)N4C[C@@H](F)C[C@H]4C#N)C3)cccc2n1 [Example 252]
Lab log: flag the item ( 1 or 2 ) with the smaller IC50 figure. When you have decided, please share the label of that item. 2

(1) N#C[C@@H]1C[C@H](F)CN1C(=O)CN1CCC(Nc2cncc3ccncc23)CC1 [Example 360]
(2) COc1ccc(N[C@H]2CCN(CC(=O)N3C[C@@H](F)C[C@H]3C#N)C2)c2cccnc12 [Example 263]
1 or 2 : whose IC50 is greater? When you have decided, please share the label of that item. 1
(1: 7.35 µM, 2: 3.83 µM)
